Attribution: patent US11084790B2

# method: Test on the solubility in a simulated body fluid
# Format: physicochemical
# experimentalContext: 0.01 M PBS pH 7.4, 37° C., 2 h
endpointName: Compound concentration: Bupivacaine

compound	endpointName	result
CCCCN1CCCCC1C(=O)Nc1c(C)cccc1C.CCCCN1CCCCC1C(=O)Nc1c(C)cccc1C.Cc1ccc(C(=O)OC(C(=O)O)C(OC(=O)c2ccc(C)cc2)C(=O)O)cc1 (centres unmarked) [Preparation Example 4, bis(bupivacaine) di-p-toluoyl tartarate]	Compound concentration: Bupivacaine	11278.1 µM
CCCCN1CCCCC1C(=O)Nc1c(C)cccc1C.CCCCN1CCCCC1C(=O)Nc1c(C)cccc1C.O=C(O)c1cc2ccccc2c(Cc2c(O)c(C(=O)O)cc3ccccc23)c1O [Preparation Example 29, bis(bupivacaine) pamoate]	Compound concentration: Bupivacaine	271.3 µM
CCCCN1CCCCC1C(=O)Nc1c(C)cccc1C.O=C(O)c1cc2ccccc2c(Cc2c(O)c(C(=O)O)cc3ccccc23)c1O [Preparation Example 10, mono(bupivacaine) pamoate]	Compound concentration: Bupivacaine	909.7 µM
CCCCN1CCCCC1C(=O)Nc1c(C)cccc1C.CCCCN1CCCCC1C(=O)Nc1c(C)cccc1C.O=C(OC(C(=O)O)C(OC(=O)c1ccccc1)C(=O)O)c1ccccc1 (centres unmarked) [Preparation Example 2, bis(bupivacaine) dibenzoyl tartarate]	Compound concentration: Bupivacaine	3565.4 µM
CCCCN1CCCCC1C(=O)Nc1c(C)cccc1C.CCCCN1CCCCC1C(=O)Nc1c(C)cccc1C.O=C(O)c1cc2ccccc2c(Cc2c(O)c(C(=O)O)cc3ccccc23)c1O [Preparation Example 12, bis(bupivacaine) pamoate]	Compound concentration: Bupivacaine	280.2 µM
CCCCN1CCCCC1C(=O)Nc1c(C)cccc1C.O=C(OC(C(=O)O)C(OC(=O)c1ccccc1)C(=O)O)c1ccccc1 (centres unmarked) [Preparation Example 1, mono(bupivacaine) dibenzoyl tartarate]	Compound concentration: Bupivacaine	7911.7 µM
CCCCN1CCCCC1C(=O)Nc1c(C)cccc1C.Cc1ccc(C(=O)OC(C(=O)O)C(OC(=O)c2ccc(C)cc2)C(=O)O)cc1 (centres unmarked) [Preparation Example 3, mono(bupivacaine) di-p-toluoyl tartarate]	Compound concentration: Bupivacaine	7719.3 µM
CCCCN1CCCCC1C(=O)Nc1c(C)cccc1C.CCCCN1CCCCC1C(=O)Nc1c(C)cccc1C.O=C(O)c1cc2ccccc2c(Cc2c(O)c(C(=O)O)cc3ccccc23)c1O [Preparation Example 15, bis(bupivacaine) pamoate]	Compound concentration: Bupivacaine	287.5 µM
CCCCN1CCCCC1C(=O)Nc1c(C)cccc1C.O=P1(O)Oc2ccc3ccccc3c2-c2c(ccc3ccccc23)O1 [Preparation Example 7, bupivacaine binaphthol phosphate]	Compound concentration: Bupivacaine	314.8 µM
CCCCN1CCCCC1C(=O)Nc1c(C)cccc1C.CCCCN1CCCCC1C(=O)Nc1c(C)cccc1C.O=C(O)c1cc2ccccc2c(Cc2c(O)c(C(=O)O)cc3ccccc23)c1O [Preparation Example 30, bis(bupivacaine) pamoate]	Compound concentration: Bupivacaine	277.3 µM
CC1(C)C2CCC1(CS(=O)(=O)O)C(=O)C2.CCCCN1CCCCC1C(=O)Nc1c(C)cccc1C (centres unmarked) [Preparation Example 8, bupivacaine camphorsulfonate]	Compound concentration: Bupivacaine	68902.6 µM

====

# method: Test on the solubility in a simulated body fluid
# Assay type: physicochemical
# experimentalContext: 0.01 M PBS pH 7.4, 37° C., 30 min
endpointName: Compound concentration: Pamoic acid (µM)

molecule	readoutNumber
CCCCN1CCCCC1C(=O)Nc1c(C)cccc1C.O=C(O)c1cc2ccccc2c(Cc2c(O)c(C(=O)O)cc3ccccc23)c1O [Preparation Example 10, mono(bupivacaine) pamoate]	916.8
CCCCN1CCCCC1C(=O)Nc1c(C)cccc1C.CCCCN1CCCCC1C(=O)Nc1c(C)cccc1C.O=C(O)c1cc2ccccc2c(Cc2c(O)c(C(=O)O)cc3ccccc23)c1O [Preparation Example 29, bis(bupivacaine) pamoate]	122.1
CCCCN1CCCCC1C(=O)Nc1c(C)cccc1C.CCCCN1CCCCC1C(=O)Nc1c(C)cccc1C.O=C(O)c1cc2ccccc2c(Cc2c(O)c(C(=O)O)cc3ccccc23)c1O [Preparation Example 30, bis(bupivacaine) pamoate]	128.5
CCCN1CCCC[C@H]1C(=O)Nc1c(C)cccc1C.O=C(O)c1cc2ccccc2c(Cc2c(O)c(C(=O)O)cc3ccccc23)c1O [Preparation Example 9, mono(ropivacaine) pamoate]	880.3
CCCCN1CCCCC1C(=O)Nc1c(C)cccc1C.CCCCN1CCCCC1C(=O)Nc1c(C)cccc1C.O=C(O)c1cc2ccccc2c(Cc2c(O)c(C(=O)O)cc3ccccc23)c1O [Preparation Example 12, bis(bupivacaine) pamoate]	127.4
CCCCN1CCCCC1C(=O)Nc1c(C)cccc1C.CCCCN1CCCCC1C(=O)Nc1c(C)cccc1C.O=C(O)c1cc2ccccc2c(Cc2c(O)c(C(=O)O)cc3ccccc23)c1O [Preparation Example 15, bis(bupivacaine) pamoate]	120.2

====

# method: Test on the solubility in a simulated body fluid
# Format: physicochemical
# experimentalContext: 0.01 M PBS pH 7.4, 37° C., 6 h
Some compounds, each annotated with its measured Compound concentration: Bupivacaine.
endpointName: Compound concentration: Bupivacaine (µM)

compound	readoutNumber
CCCCN1CCCCC1C(=O)Nc1c(C)cccc1C.O=C(OC(C(=O)O)C(OC(=O)c1ccccc1)C(=O)O)c1ccccc1 (centres unmarked) [Preparation Example 1, mono(bupivacaine) dibenzoyl tartarate]	7006.1
CCCCN1CCCCC1C(=O)Nc1c(C)cccc1C.CCCCN1CCCCC1C(=O)Nc1c(C)cccc1C.O=C(O)c1cc2ccccc2c(Cc2c(O)c(C(=O)O)cc3ccccc23)c1O [Preparation Example 30, bis(bupivacaine) pamoate]	287.2

====

Some compounds, each annotated with its measured Compound concentration: Bupivacaine.
# method: Test on the solubility in a simulated body fluid
# Format: physicochemical
# experimentalContext: 0.01 M PBS pH 7.4, 37° C., 24 h
endpointName: Compound concentration: Bupivacaine (µM)

compound	unit	readoutNumber
CC1(C)C2CCC1(CS(=O)(=O)O)C(=O)C2.CCCCN1CCCCC1C(=O)Nc1c(C)cccc1C (centres unmarked) [Preparation Example 8, bupivacaine camphorsulfonate]	µM	66020
CCCCN1CCCCC1C(=O)Nc1c(C)cccc1C.O=P1(O)Oc2ccc3ccccc3c2-c2c(ccc3ccccc23)O1 [Preparation Example 7, bupivacaine binaphthol phosphate]	µM	268.4
CCCCN1CCCCC1C(=O)Nc1c(C)cccc1C.O=C(OC(C(=O)O)C(OC(=O)c1ccccc1)C(=O)O)c1ccccc1 (centres unmarked) [Preparation Example 1, mono(bupivacaine) dibenzoyl tartarate]	µM	5767.9
CCCCN1CCCCC1C(=O)Nc1c(C)cccc1C.CCCCN1CCCCC1C(=O)Nc1c(C)cccc1C.Cc1ccc(C(=O)OC(C(=O)O)C(OC(=O)c2ccc(C)cc2)C(=O)O)cc1 (centres unmarked) [Preparation Example 4, bis(bupivacaine) di-p-toluoyl tartarate]	µM	11693.3
CCCCN1CCCCC1C(=O)Nc1c(C)cccc1C.CCCCN1CCCCC1C(=O)Nc1c(C)cccc1C.O=C(O)c1cc2ccccc2c(Cc2c(O)c(C(=O)O)cc3ccccc23)c1O [Preparation Example 12, bis(bupivacaine) pamoate]	µM	284.8
CCCCN1CCCCC1C(=O)Nc1c(C)cccc1C.CCCCN1CCCCC1C(=O)Nc1c(C)cccc1C.O=C(O)c1cc2ccccc2c(Cc2c(O)c(C(=O)O)cc3ccccc23)c1O [Preparation Example 29, bis(bupivacaine) pamoate]	µM	305
CCCCN1CCCCC1C(=O)Nc1c(C)cccc1C.Cc1ccc(C(=O)OC(C(=O)O)C(OC(=O)c2ccc(C)cc2)C(=O)O)cc1 (centres unmarked) [Preparation Example 3, mono(bupivacaine) di-p-toluoyl tartarate]	µM	7917.8
CCCCN1CCCCC1C(=O)Nc1c(C)cccc1C.CCCCN1CCCCC1C(=O)Nc1c(C)cccc1C.O=C(O)c1cc2ccccc2c(Cc2c(O)c(C(=O)O)cc3ccccc23)c1O [Preparation Example 15, bis(bupivacaine) pamoate]	µM	290.3
CCCCN1CCCCC1C(=O)Nc1c(C)cccc1C.CCCCN1CCCCC1C(=O)Nc1c(C)cccc1C.O=C(OC(C(=O)O)C(OC(=O)c1ccccc1)C(=O)O)c1ccccc1 (centres unmarked) [Preparation Example 2, bis(bupivacaine) dibenzoyl tartarate]	µM	6389.6
CCCCN1CCCCC1C(=O)Nc1c(C)cccc1C.CCCCN1CCCCC1C(=O)Nc1c(C)cccc1C.O=C(O)c1cc2ccccc2c(Cc2c(O)c(C(=O)O)cc3ccccc23)c1O [Preparation Example 30, bis(bupivacaine) pamoate]	µM	286.9
CCCCN1CCCCC1C(=O)Nc1c(C)cccc1C.O=C(O)c1cc2ccccc2c(Cc2c(O)c(C(=O)O)cc3ccccc23)c1O [Preparation Example 10, mono(bupivacaine) pamoate]	µM	67

====

Some compounds, each annotated with its measured Compound concentration: Pamoic acid.
# method: Test on the solubility in a simulated body fluid
# Type: physicochemical
# experimentalContext: 0.01 M PBS pH 7.4, 37° C., 15 min
endpointName: Compound concentration: Pamoic acid (µM)

compound	endpointName	unit	readoutNumber
CCCCN1CCCCC1C(=O)Nc1c(C)cccc1C.CCCCN1CCCCC1C(=O)Nc1c(C)cccc1C.O=C(O)c1cc2ccccc2c(Cc2c(O)c(C(=O)O)cc3ccccc23)c1O [Preparation Example 12, bis(bupivacaine) pamoate]	Compound concentration: Pamoic acid	µM	107
CCCCN1CCCCC1C(=O)Nc1c(C)cccc1C.CCCCN1CCCCC1C(=O)Nc1c(C)cccc1C.O=C(O)c1cc2ccccc2c(Cc2c(O)c(C(=O)O)cc3ccccc23)c1O [Preparation Example 30, bis(bupivacaine) pamoate]	Compound concentration: Pamoic acid	µM	111.6
